TGT: Ba/F3-FGFR1-transfected cells (Homo sapiens, UniProt P11362)
Construct: BAF3-FGFR1 (MIN IL3) pIC50; other: minus IL3
Sequence (P11362 whole entry, change not shown): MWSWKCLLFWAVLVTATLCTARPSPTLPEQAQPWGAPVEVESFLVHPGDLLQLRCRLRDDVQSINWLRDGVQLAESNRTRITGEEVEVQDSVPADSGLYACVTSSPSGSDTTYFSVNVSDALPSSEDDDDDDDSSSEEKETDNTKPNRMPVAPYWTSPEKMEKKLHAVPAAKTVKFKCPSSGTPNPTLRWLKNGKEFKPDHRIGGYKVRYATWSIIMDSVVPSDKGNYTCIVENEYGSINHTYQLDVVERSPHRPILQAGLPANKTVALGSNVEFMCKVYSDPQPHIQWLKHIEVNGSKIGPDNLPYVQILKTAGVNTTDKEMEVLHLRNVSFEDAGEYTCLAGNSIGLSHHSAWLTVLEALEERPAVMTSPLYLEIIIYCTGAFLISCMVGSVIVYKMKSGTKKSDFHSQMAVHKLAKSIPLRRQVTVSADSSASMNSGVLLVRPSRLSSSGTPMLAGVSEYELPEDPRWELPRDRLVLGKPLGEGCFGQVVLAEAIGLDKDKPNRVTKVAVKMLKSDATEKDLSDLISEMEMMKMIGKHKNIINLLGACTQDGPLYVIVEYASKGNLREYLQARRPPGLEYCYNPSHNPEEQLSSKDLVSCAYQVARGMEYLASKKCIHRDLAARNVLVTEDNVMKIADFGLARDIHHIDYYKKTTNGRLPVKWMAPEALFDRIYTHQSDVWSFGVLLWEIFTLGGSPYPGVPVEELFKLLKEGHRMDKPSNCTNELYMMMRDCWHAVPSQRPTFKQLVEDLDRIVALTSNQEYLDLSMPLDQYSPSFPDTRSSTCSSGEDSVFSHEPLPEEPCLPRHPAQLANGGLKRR
EXPERIMENTAL_DETAILS: Ba/F3-FGFR1 (minus IL3) cellular proliferation assay, Alamar Blue
Format: cell-based
REPORTED_PROPERTY: BAF3-FGFR1 (MIN IL3) pIC50
// no unit, no text: just the number

Before answering, review these 4 worked examples.
COc1cc(OC)c(F)c(/N=c2\ccc3ncc(-c4cnn(C)c4)nc3n2CCNC(C)C)c1F [Compound 6]    8.0
COc1cc(/N=c2\ccc3ncc(-c4cnn(C)c4)nc3n2CC2CCC(=O)N2)c(F)c(OC)c1 (centres unmarked) [Compound 45]    7.14
COc1cc(OC)c(F)c(N(CC2CC2)c2ccc3ncc(-c4cnn(C)c4)nc3n2)c1F (single isomer, unassigned) [Compound 268]    7.44
CNCCn1/c(=N/c2c(F)c(OC)cc(OC)c2F)ccc2ncc(-c3cn[nH]c3)nc21 [Compound 121]    7.38

Entry COc1cc(/N=c2\ccc3ncc(-c4cnn(C)c4)nc3n2CC2COC(=O)N2)c(F)c(OC)c1 (single isomer, unassigned) [Compound 112] : reported BAF3-FGFR1 (MIN IL3) pIC50 = ?
7.23

What does the data say about its BAF3-FGFR1 (MIN IL3) pIC50? Entry: COc1cc(/N=c2\ccc3ncc(-c4cnn(C)c4)nc3n2CC(C)(C)O)cc(OC)c1 [Compound 277]
6.91

Can you share its BAF3-FGFR1 (MIN IL3) pIC50? I mean this compound: COc1cc(OC)c(F)c(N(Cc2ncc[nH]2)c2ccc3ncc(-c4ccncc4)nc3n2)c1 [Compound 211]
8.08

GET /values?readout=BAF3-FGFR1 (MIN IL3) pIC50&item= CNCCN(c1ccc2ncc(-c3cnn(C)c3)nc2n1)c1c(Cl)ccc(OC)c1Cl [Compound 83]
5.36

Value lookup for BAF3-FGFR1 (MIN IL3) pIC50; key = COc1cc(OC)c(F)c(N(Cc2nc3c([nH]2)CCNC3)c2ccc3ncc(-c4cnn(C)c4)nc3n2)c1 [Compound 104]
6.70
